Entry source: PubChem BioAssay AID1851

targetOrSystem: Cytochrome P450 2D6 (Homo sapiens)
experimentalDetails: Cytochrome panel assay with activity outcomes
settings: recombinant CYP, pro-luciferin dealkylation, luminescence, p450-cyp2d6; series mostly up to 57.1 µM
Out of some 16,000 compounds screened, about 2,600 (16%) were called active. Inconclusive results (about 20%) are left out. Not all results are given here.
measureName: AC50

A selection of reference data follows.
>>> result("COc1ccc(C(=O)Nc2ccc(Cl)cn2)cc1Cl")
"3.55 µM (active)"
>>> result("COc1ccc(C(=O)Nc2cc(Cl)ccc2OC(=O)c2ccc(OC)cc2)cc1")
"inactive"
>>> result("Cc1noc(C)c1-c1cc(Nc2ccccc2)ncn1")
"inactive"
>>> result("Cc1ccc(-c2nc3ccccc3s2)cc1NC(=S)NC(=O)c1ccccc1")
"inactive"
>>> result("COc1ccc(OC)c(C2CC(=O)C3=C(C2)NC(=O)CC3c2ccc(O)c(OC)c2)c1 (stereo unspecified)")
"inactive"

Q: Please report the recorded AC50 for Clc1ccccc1-c1cc(NCc2cccnc2)ncn1 .
A: inactive

* * *

targetOrSystem: Cytochrome P450 2D6 (Homo sapiens) (UniProt P10635)
Sequence (P10635 whole entry, looked up): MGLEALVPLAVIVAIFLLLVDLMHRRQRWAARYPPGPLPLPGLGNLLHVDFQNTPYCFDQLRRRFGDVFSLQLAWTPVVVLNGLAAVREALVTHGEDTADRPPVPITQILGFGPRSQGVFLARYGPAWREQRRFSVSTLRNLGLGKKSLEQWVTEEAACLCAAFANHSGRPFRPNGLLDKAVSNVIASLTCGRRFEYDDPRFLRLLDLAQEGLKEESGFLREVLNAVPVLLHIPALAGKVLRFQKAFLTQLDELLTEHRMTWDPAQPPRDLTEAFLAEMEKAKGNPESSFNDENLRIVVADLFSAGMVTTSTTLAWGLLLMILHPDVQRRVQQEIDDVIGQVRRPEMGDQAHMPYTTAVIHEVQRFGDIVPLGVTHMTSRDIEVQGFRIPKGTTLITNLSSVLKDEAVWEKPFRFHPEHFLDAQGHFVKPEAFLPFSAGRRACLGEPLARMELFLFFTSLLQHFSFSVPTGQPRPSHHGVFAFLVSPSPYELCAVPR
experimentalDetails: Cytochrome panel assay with activity outcomes; for activity, negative = inhibition: % is set by controls: 0 for no effect and ±100 for the full control effect
settings: recombinant CYP, pro-luciferin dealkylation, luminescence, p450-cyp2d6; series mostly up to 57.1 µM
Experimental: The P450 gene superfamily is involved in the metabolism and clearance of xenobiotics. This assay used various human CYP P450 isozymes to measure the dealkylation of various pro-luciferin substrates to luciferin. The luciferin is then measured by luminescence after the addition of a luciferase detection reagent. […] Inhibitors and some substrates limit the production of luciferin, and decrease measured luminescence. […] 8, Detection, 1 sec, ViewLux luminescent read […]
The whole screen tested about 16,000 compounds, of which about 2,600 (16%) were called active. Roughly 20% stayed inconclusive and do not appear here. These entries were drawn from the full list.
So I've got a bunch of compounds here, and I need their activity, negative = inhibition values.

Q: Please report the recorded activity, negative = inhibition for C[N+](C)(C)CCCSc1nc2ccccc2[nH]1 .
A: 11.4% [at 11.4 µM] (inactive)

Q: Please report the recorded activity, negative = inhibition for Cc1ccc(SCN2CCCCC2)cc1 (tested in a mixture with another compound) .
A: -7.47% [at 11.4 µM] (inactive)

Q: Please report the recorded activity, negative = inhibition for CN(C)CCOC(=O)c1ccc(N)cc1 .
A: 11.9% [at 11.4 µM] (inactive)

Q: Please report the recorded activity, negative = inhibition for CO[C@@H]1COC(=O)C/C=C\[C@@H](C)COC(=O)[C@H](COCc2ccccc2)NC(=O)C/C=C\[C@H]1C .
A: 10.2% [at 11.4 µM] (inactive)

Q: Please report the recorded activity, negative = inhibition for COc1cc(O)c2c(O)c3c(c4c2c1[C@@]1(C4)C(C)=CCCC1(C)C)[C@H](O)[C@@]1(O)CC(=O)C(C(N)=O)=C(O)[C@]1(O)C3=O .
A: -15.8% [at 11.4 µM] (inactive)

Q: Please report the recorded activity, negative = inhibition for Cn1ccnc1C[C@@](C)(O)c1ccccc1 .
A: -12.1% [at 11.4 µM] (inactive)

Q: Please report the recorded activity, negative = inhibition for COC(=O)C/C=C\[C@H](C)[C@H](CO)NS(=O)(=O)c1ccc(C)cc1 .
A: -10.6% [at 11.4 µM] (inactive)

Q: Please report the recorded activity, negative = inhibition for Cc1[nH]c2ccccc2c1-c1cc(-c2cc(-c3c(C)[nH]c4ccccc34)on2)no1 .
A: 5.28% [at 11.4 µM] (inactive)

Q: Please report the recorded activity, negative = inhibition for COC(=O)[C@@H]1CC[C@H](C)[C@@H](c2ccc(C)cc2)N1C(=O)c1ccc(/C=N\O[C@@H](C)c2cn([C@H]3COC[C@H]3O)nn2)cc1 .
A: -10% [at 11.4 µM] (inactive)

* * *

targetOrSystem: Cytochrome P450 2D6 (Homo sapiens) (UniProt P10635)
experimentalDetails: Cytochrome panel assay with activity outcomes
settings: recombinant CYP, pro-luciferin dealkylation, luminescence, p450-cyp2d6; series mostly up to 57.1 µM
The whole screen tested about 16,000 compounds, of which about 2,600 (16%) were called active. Roughly 20% stayed inconclusive and do not appear here. Calls come from the whole dose curve; as a rule, active = well fitted curve in the direction sought with a large enough effect; inconclusive = small, poorly fitted or top-dose-only effect, or effect the other way; inactive = no such curve, though single readings can be large or run the other way. A selection follows.
Your response should consist of one outcome taken from active, inactive

Q: Assay outcome for O=c1c(-c2ccc(Cl)cc2)nc2cncnc2n1Cc1ccccc1Cl : what was it?
A: inactive

Q: Assay outcome for Cc1cccc(NC(=S)NC(=O)CCc2ccccc2)c1 : what was it?
A: inactive

Q: Assay outcome for CCCN(C(=S)Nc1ccccc1)C1CCS(=O)(=O)C1 (stereo not drawn) : what was it?
A: inactive

Q: Assay outcome for COc1ccc(-n2c(=O)c(-c3ccccc3)nc3cnc(N4CCOCC4)nc32)cc1 : what was it?
A: inactive

Q: Assay outcome for Cc1ccc(C)c(S(=O)(=O)NCc2ccc(C(=O)N3CCC(Cc4ccccc4)CC3)cc2)c1 : what was it?
A: inactive

Q: Assay outcome for CS(=O)(=O)Nc1ccc(C(=O)N2CCN(c3ccccc3)CC2)cc1 : what was it?
A: inactive

Q: Assay outcome for CCC1C(=O)OCC1Cc1cncn1C (stereo not drawn) : what was it?
A: inactive

Q: Assay outcome for CCCCSC(=S)N(C)C1CCS(=O)(=O)C1 (stereo not drawn) : what was it?
A: inactive

Q: Assay outcome for O=c1c(-c2cccs2)nc2cncnc2n1Cc1ccccc1 : what was it?
A: inactive

Q: Assay outcome for CCOc1cc(NC(=S)NCC2CCCO2)c(OCC)cc1NC(=O)c1cccc(C)c1 (stereo not drawn) : what was it?
A: inactive

Q: Assay outcome for CN(C)c1ncc2nc(-c3ccc(F)cc3)c(=O)n(Cc3cccs3)c2n1 : what was it?
A: inactive

Q: Assay outcome for CCn1cc(C(=O)NCC(=O)OC)c2cc(OC)c(OC)cc2c1=O : what was it?
A: inactive

Q: Assay outcome for Nc1cc(Cl)ccc1Oc1ccccc1 : what was it?
A: inactive

Q: Assay outcome for C[C@@H](O)[C@H]1C(=O)N2C(C(=O)O)=C(S[C@@H]3CN[C@H](C(=O)N(C)C)C3)[C@H](C)[C@H]12 : what was it?
A: inactive

Q: Assay outcome for Cn1c(=O)c2c(ncn2CCO)n(C)c1=O : what was it?
A: inactive

Q: Assay outcome for COc1cccc(Nc2ncc3nc(CCc4ccccc4)c(=O)n(Cc4cccs4)c3n2)c1 : what was it?
A: inactive

Q: Assay outcome for Clc1ccc2c(NCCNC3CCCCC3)ccnc2c1 : what was it?
A: active

Q: Assay outcome for CN(C)c1ncc2nc(-c3cccs3)c(=O)n(CCc3ccccc3)c2n1 : what was it?
A: inactive

Q: Assay outcome for Cn1c(=O)c2c(ncn2C[C@@H](O)CO)n(C)c1=O : what was it?
A: inactive

Q: Assay outcome for COc1ccc(OC)c(C2N(c3cc(C)on3)C(=O)C3CCCN32)c1 (stereo not drawn) : what was it?
A: inactive

Q: Assay outcome for COC(Cc1nnc(SC)n1-c1ccccc1)OC : what was it?
A: inactive

Q: Assay outcome for Cc1cc(C(F)(F)F)n2nc(-c3cnn(C)c3C(F)(F)F)cc2n1 : what was it?
A: inactive

Q: Assay outcome for COC(=O)c1cccc(NC(=O)/C=C/c2cccc([N+](=O)[O-])c2)c1 : what was it?
A: inactive

* * *

targetOrSystem: Cytochrome P450 2D6 (Homo sapiens)
experimentalDetails: Cytochrome panel assay with activity outcomes
settings: recombinant CYP, pro-luciferin dealkylation, luminescence, p450-cyp2d6; series mostly up to 57.1 µM
Hit rate of the full screen: of about 16,000 compounds, about 2,600 (16%) were called active. Another 20% or so got no clear call; they are omitted. Calls follow the shape of the dose curve; as a rule, active = well fitted curve in the direction sought with a large enough effect; inconclusive = small, poorly fitted or top-dose-only effect, or effect the other way; inactive = no such curve, though single readings can be large or run the other way. These entries were drawn from the full list.
Your response should consist of one outcome taken from active, inactive

Q: Assay outcome for CCCn1c2c(c(O)c(C(=O)NCc3ccccc3)c1=O)CCCC2 : what was it?
A: active

Q: Assay outcome for CCn1c(COc2ccc(C)cc2)nnc1SCc1ccc(C#N)cc1 : what was it?
A: inactive

Q: Assay outcome for O=C(Nc1cccc(-c2cn3cccnc3n2)c1)c1ccco1 : what was it?
A: inactive

Q: Assay outcome for Cc1nnc(SCC(=O)N2CC(=O)Nc3ccccc32)n1Cc1ccccc1 : what was it?
A: inactive

Q: Assay outcome for Cc1cc(=O)oc(C)c1C(=O)NCc1ccccc1 : what was it?
A: inactive

Q: Assay outcome for Cc1cc([N+](=O)[O-])nn1Cc1ccccc1F : what was it?
A: inactive

Q: Assay outcome for S=c1[nH]nc(-c2ccncc2)n1CC1CCCO1 (configuration not stated) : what was it?
A: inactive

Q: Assay outcome for CN(C)/C=C/C(=O)c1ccc(F)cc1 : what was it?
A: inactive

Q: Assay outcome for CCCCCCc1nc2ccccc2c(=O)n1NC(=O)c1c(O)c2c(n(CC(C)C)c1=O)CCCC2 : what was it?
A: inactive

Q: Assay outcome for Cc1ccc(NC(=S)N2CCN(C3CCCCC3)CC2)cc1 : what was it?
A: active

Q: Assay outcome for CCS(=O)(=O)N1CCC(C(=O)NCC2CCCO2)CC1 (configuration not stated) : what was it?
A: inactive

Q: Assay outcome for Cc1ccccc1NC(=O)c1cnc(Nc2nc3ccccc3s2)nc1C : what was it?
A: inactive
